Reported log10 of IC50 values are given for each entry in this list.
Tested on: PLA-801
assay_text: In vitro cytotoxicity, IC50 by MTT method, PLA-801
Format: cell-based
experimental_context: PLA-801 cell strain; read-out: IC50 PLA-801
Friendly reminder: values = log10 of IC50, unit µM.

Below: 10 compounds and their reported log10 of IC50.
CCn1c2ccccc2c2cc(C(=O)OC)ncc21 [Compound 27, methyl 9-ethyl-β-carboline-3-carboxylate] : 2.46
CCCc1nc(C(=O)O)cc2c3ccccc3n(Cc3ccccc3)c12 : 2.43
COC(=O)c1cc2c3ccccc3n(C)c2cn1 : 2.08
CCCc1nc(C(=O)O)cc2c3ccccc3n(CCCc3ccccc3)c12 : 2.36
CCCCOC(=O)c1cc2c3ccccc3n(CC)c2cn1 [Compound 39, butyl 9-ethyl-β-carboline-3-carboxylate] : 2.04
CCn1c2ccccc2c2cc(C(=O)O)ncc21 : 2.32
CCn1c2ccccc2c2cc(C(=O)NN)ncc21 [Compound 51, 3-carbohydrazine 9-ethyl-β-carboline] : 2.71
CCn1c2ccccc2c2cc(C(=O)O)nc(C)c21 : 3.37
CCOC(=O)c1cc2c3ccccc3n(Cc3ccccc3)c2c[n+]1Cc1ccccc1.[O-][I+2]([O-])[O-] : 1.48
CCCCn1c2ccccc2c2cc(C(=O)OCC)ncc21 [Compound 32, ethyl 9-butyl-β-carboline-3-carboxylate] : 1.85

Find the recorded log10 of IC50 belonging to CCOC(=O)c1cc2c3ccccc3n(Cc3c(F)c(F)c(F)c(F)c3F)c2c(C)n1 and report it.
1.70

* * *

Test system: Lewis lung cancer;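 note: mice implanted subcutaneously in the axilla with Lewis lung tumor cells, treated starting the following day, killed roughly three weeks after implantation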
experimental_context: Lewis lung cancer; Dosage 100, ip × 10qd; second time
endpoint: Inhibition rate, Second time (%)
Your answer is read as %, so omit the unit and give the number.

Below: 5 compounds and their reported Inhibition rate, Second time.
CCOC(=O)c1cc2c3ccccc3n(Cc3ccccc3)c2cn1 [Compound 33, ethyl 9-benzyl-β-carboline-3-carboxylate] : 43.34
OCc1cc2c3ccccc3n(Cc3ccccc3)c2cn1 [Compound 42, 9-benzyl-3-hydroxymethyl-β-carboline] : 34.47
O=C(O)c1cc2c3ccccc3n(CCCc3ccccc3)c2cn1 : 39.59
CCCCn1c2ccccc2c2cc(C(=O)O)ncc21 : 46.91
CCOC(=O)Nc1cc2c3ccccc3n(Cc3ccccc3)c2cn1 : 30.93

Find the recorded Inhibition rate, Second time belonging to c1ccc(Cn2c3ccccc3c3ccncc32)cc1 and report it.
37.29

Item: O=C(O)c1cc2c(cn1)[nH]c1ccccc12
37.86

* * *

Test system: Bel-7402
assay_text: In vitro cytotoxicity, IC50 by MTT method, Bel-7402
Type: cell-based
experimental_context: Homo sapiens, Bel-7402; Bel7402 cell strain; read-out: IC50 Bel7402
Reported pIC50 values are given for each entry in this list.
Note: pIC50 values are expressed as the negative base-10 logarithm of concentration in M.

CCCc1nc(C(=O)O)cc2c3ccccc3n(CCCc3ccccc3)c12 [Compound 75] : 3.70
CCOC(=O)c1cc2c3ccccc3n(CC)c2c(C)n1 [Compound 57] : 3.06
Cn1c2ccccc2c2cc(C(=O)O)ncc21 [Compound 34, 9-methyl-β-carboline-3-carboxylic acid] : 3.48
Cc1nc(C(=O)O)cc2c3ccccc3n(CCCc3ccccc3)c12 [Compound 65] : 3.25

Here's the next entry for you.
Find the recorded pIC50 belonging to CCOC(=O)c1cc2c3ccccc3n(CC)c2cn1 [Compound 31, ethyl 9-ethyl-β-carboline-3-carboxylate] and report it.
3.59
